- Study target: Signal transducer and activator of transcription 3 (Homo sapiens, UniProt P40763)
- Sequence (P40763 whole entry): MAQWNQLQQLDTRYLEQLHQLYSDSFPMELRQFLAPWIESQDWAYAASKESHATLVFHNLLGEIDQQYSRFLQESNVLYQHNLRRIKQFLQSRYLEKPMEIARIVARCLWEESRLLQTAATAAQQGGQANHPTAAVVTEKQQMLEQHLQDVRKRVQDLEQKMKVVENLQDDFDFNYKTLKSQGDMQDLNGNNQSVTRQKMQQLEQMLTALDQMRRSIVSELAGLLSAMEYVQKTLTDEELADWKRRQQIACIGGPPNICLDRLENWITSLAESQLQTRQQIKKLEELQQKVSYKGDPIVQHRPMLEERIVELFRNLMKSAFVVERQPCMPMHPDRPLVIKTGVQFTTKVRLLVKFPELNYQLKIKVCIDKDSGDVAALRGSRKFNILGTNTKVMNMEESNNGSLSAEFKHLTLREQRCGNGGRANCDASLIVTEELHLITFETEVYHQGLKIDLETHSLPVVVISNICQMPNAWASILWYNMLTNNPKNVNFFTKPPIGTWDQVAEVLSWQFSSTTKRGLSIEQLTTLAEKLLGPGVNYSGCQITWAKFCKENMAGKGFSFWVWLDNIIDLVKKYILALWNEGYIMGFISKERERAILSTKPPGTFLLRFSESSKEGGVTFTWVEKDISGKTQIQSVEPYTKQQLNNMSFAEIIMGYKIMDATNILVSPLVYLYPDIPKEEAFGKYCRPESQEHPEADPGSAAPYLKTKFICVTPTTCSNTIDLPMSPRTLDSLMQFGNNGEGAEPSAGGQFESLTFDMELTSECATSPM
- Method description: Inhibition of […] activation in human AD293 cells incubated […] for 16 hrs followed by compound addition measured after 4 hrs by luciferase reporter gene assay
- Assay type: cell-based
Reported metric: EC50

Field: example entries. Status: answers known.
[[record]]
structure_smiles_string = "C=C1CC[C@@H]2[C@](C)(CO)[C@H](O)CC[C@@]2(C)[C@@H]1C/C=C1/C(=O)OC[C@H]1O[Si](C)(C)C(C)(C)C"
test_value = "> 10 µM"

[[record]]
structure_smiles_string = "C[C@@]12CCC(=O)[C@@](C)(CO)[C@H]1CC[C@]1(CO1)[C@H]2C/C=C1/C(=O)OC[C@H]1O"
test_value = "> 10 µM"

[[record]]
structure_smiles_string = "C=C1CC[C@@H]2[C@](C)(CO[Si](C)(C)C(C)(C)C)[C@H](OC(C)=O)CC[C@@]2(C)[C@@H]1C/C=C1/C(=O)OC[C@H]1OC(C)=O"
test_value = "> 10 µM"


For the next question, use this compound.
Request: Supply reported EC50 belonging to this compound: C=C1CC[C@H]2[C@@](C)(CCC(=O)[C@@]2(C)CO[Si](C)(C)C(C)(C)C)[C@@H]1C/C=C1/C(=O)OC[C@@H]1O
Response: > 10 µM
